The measurements presented in this section are drawn from PubChem BioAssay AID2060910.

Test system: 242566-281-R-J2-PDC complex spheroid viability;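 also: spheroids exposed to compound for 7 days before readout; 100% = DMSO vehicle control wells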
Experiment: Anticancer human tumor 242566-281-R-J2-PDC patient-derived pancreatic carcinoma cell line growth inhibition [RAS]
Conditions: second compound 0.03 µM; first compound 0.00949 µM; stronger effect = lower value
MEASUREMENT_NAME: viability, T/C (%)
// note: answer is a bare numeric in %

Query string: Look up viability, T/C of CCc1c2c(nc3ccc(O)cc13)-c1cc3c(c(=O)n1C2)COC(=O)[C@]3(O)CC + CCn1c(-c2cccnc2C(C)OC)c2c3cc(ccc31)N1CCOC(CC(NC(=O)C(C(C)C)N(C)C(=O)C3(F)CCN(C(=O)C#CC(C)(C)N(C)C)CC3)C(=O)N3CCCC(N3)C(=O)OCC(C)(C)C2)C1 and report it.
Result string: 73.9

Query string: Please give measured viability, T/C of the following entry: CC1(C)CCC(Nc2ncc(C(F)(F)F)c(-c3c[nH]c4c(P(C)(C)=O)c(C#N)ccc34)n2)CN1 (centres undefined) + CCn1c(-c2cc(N3CCN(C)CC3)cnc2C(C)OC)c2c3cc(ccc31)-c1csc(n1)CC(NC(=O)C1CC1C)C(=O)N1CCCC(N1)C(=O)OCC(C)(C)C2
Result string: 30.2

Query string: Entry CCc1c2c(nc3ccc(O)cc13)-c1cc3c(c(=O)n1C2)COC(=O)[C@]3(O)CC + CCn1c(-c2cc(N3CCN(C)CC3)cnc2C(C)OC)c2c3cc(ccc31)-c1csc(n1)CC(NC(=O)C1CC1C)C(=O)N1CCCC(N1)C(=O)OCC(C)(C)C2 needs its viability, T/C filled in; supply it.
Result string: 27

Query string: Retrieve viability, T/C measured for CC1(C)CCC(Nc2ncc(C(F)(F)F)c(-c3c[nH]c4c(P(C)(C)=O)c(C#N)ccc34)n2)CN1 (centres undefined) + CCn1c(-c2cccnc2C(C)OC)c2c3cc(ccc31)N1CCOC(CC(NC(=O)C(C(C)C)N(C)C(=O)C3(F)CCN(C(=O)C#CC(C)(C)N(C)C)CC3)C(=O)N3CCCC(N3)C(=O)OCC(C)(C)C2)C1 and print it.
Result string: 96
